Entry source: patent US20140309265A1

target_or_test_system: His-BIR2-3 (125-356, C202A/C213G, XIAP) (Homo sapiens, UniProt P98170, C202A/C213G)
Construct: additions of His-BIR2-3 (125-356, C202A/C213G, XIAP), fluorescein labeled dimeric SMAC peptide
Sequence (P98170 125-356 C202A/C213G): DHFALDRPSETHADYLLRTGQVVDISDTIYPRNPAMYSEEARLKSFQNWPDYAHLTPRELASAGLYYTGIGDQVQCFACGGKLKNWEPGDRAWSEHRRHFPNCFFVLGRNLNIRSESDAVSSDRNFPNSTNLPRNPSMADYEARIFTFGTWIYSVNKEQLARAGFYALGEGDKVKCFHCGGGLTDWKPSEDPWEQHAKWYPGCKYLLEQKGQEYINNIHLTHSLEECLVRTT
method_summary: XIAP-BIR2-3 Dimeric SMAC Peptide Homogeneous Time Resolved Fluorescence (HTRF) Assay
condition_info: XIAP BIR2-3, HTRF, Table 4
Examples of molecules with documented IC50 follow.
measure_name: IC50

molecule	experimental_value
CN[C@@H](C)C(=O)N[C@H](C(=O)N1C[C@@H]2C[C@H]1C(=O)N[C@@H](Cc1ccc3ccccc3c1)C(=O)N[C@H](C(=O)O)Cc1ccc(cc1)OCc1cn(nn1)[C@H]1C[C@@H](C(=O)N[C@@H](Cc3ccc4ccccc4c3)C(=O)N[C@H](C(=O)N[C@@H](CCCCN)C(=O)N[C@@H](CO)C(=O)O)Cc3ccc(cc3)OCc3cn2nn3)N(C(=O)[C@@H](NC(=O)[C@H](C)NC)C(C)(C)C)C1)C(C)(C)C	> 10 nM
CN[C@@H](C)C(=O)N[C@H](C(=O)N1C[C@@H]2C[C@H]1C(=O)N[C@@H](Cc1ccc3ccccc3c1)C(=O)N[C@H](C(=O)O)Cc1ccc(cc1)OCc1cn(nn1)[C@H]1C[C@@H](C(=O)N[C@@H](Cc3ccc4ccccc4c3)C(=O)N[C@H](C(=O)NS(=O)(=O)c3ccccn3)Cc3ccc(cc3)OCc3cn2nn3)N(C(=O)[C@@H](NC(=O)[C@H](C)NC)C(C)(C)C)C1)C(C)(C)C	≤ 1 nM
CN[C@@H](C)C(=O)N[C@H](C(=O)N1C[C@@H]2C[C@H]1C(=O)N[C@@H](Cc1ccc3ccccc3c1)C(=O)N[C@H](C(=O)O)Cc1ccc(cc1)OCc1cn(nn1)[C@H]1C[C@@H](C(=O)N[C@@H](Cc3ccc4ccccc4c3)C(=O)N[C@H](C(=O)NCc3cccc(-c4nnn[nH]4)c3)Cc3ccc(cc3)OCc3cn2nn3)N(C(=O)[C@@H](NC(=O)[C@H](C)NC)C(C)(C)C)C1)C(C)(C)C [Compound 1029]	1 to 10 nM

###

target_or_test_system: XIAP His-BIR2 (124-240/C202A/C213G) (Homo sapiens, UniProt P98170, C202A/C213G)
Construct: additions of His-BIR2 (124-240/C202A/C213G), Biotinylated SMAC peptide
Sequence (P98170 124-240 C202A/C213G): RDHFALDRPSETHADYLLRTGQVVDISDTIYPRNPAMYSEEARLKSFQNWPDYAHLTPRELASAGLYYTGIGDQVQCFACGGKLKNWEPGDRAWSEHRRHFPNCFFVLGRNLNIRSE
method_summary: XIAP-BIR2/SMAC Peptide AlphaScreen Assay
Format: binding
condition_info: XIAP BIR2, AlphaScreen, Table 2; read-out: BIR2 IC50
Examples of compounds with documented IC50 follow.

smiles_string	IC50
CN[C@@H](C)C(=O)N[C@@H](C)C(=O)N1C[C@@H]2C[C@H]1C(=O)N[C@@H](Cc1ccccc1)C(=O)N[C@H](C(=O)O)Cc1ccc(cc1)OCc1cn(nn1)[C@H]1C[C@@H](C(=O)N[C@@H](Cc3ccccc3)C(=O)N[C@H](C(=O)O)Cc3ccc(cc3)OCc3cn2nn3)N(C(=O)[C@H](C)NC(=O)[C@H](C)NC)C1	> 12000 nM
CN[C@@H](C)C(=O)N[C@H](C(=O)N1C[C@@H]2C[C@H]1C(=O)N[C@@H](Cc1ccc3ccccc3c1)C(=O)N(C)[C@H](C(=O)O)Cc1ccc(cc1)OCc1cn(nn1)[C@H]1C[C@@H](C(=O)N[C@@H](Cc3ccc4ccccc4c3)C(=O)N(C)[C@H](C(=O)O)Cc3ccc(cc3)OCc3cn2nn3)N(C(=O)[C@@H](NC(=O)[C@H](C)NC)C(C)C)C1)C(C)C	< 2000 nM
CN[C@@H](C)C(=O)N[C@H](C(=O)N1C[C@@H]2C[C@H]1C(=O)N[C@@H](Cc1c[nH]c3ccccc13)C(=O)N[C@H](C(=O)O)Cc1ccc(cc1)OCc1cn(nn1)[C@H]1C[C@@H](C(=O)N[C@@H](Cc3c[nH]c4ccccc34)C(=O)N[C@H](C(=O)O)Cc3ccc(cc3)OCc3cn2nn3)N(C(=O)[C@@H](NC(=O)[C@H](C)NC)C(C)C)C1)C(C)C	< 2000 nM
CN[C@@H](C)C(=O)N[C@H](C(=O)N1CC2C[C@H]1C(=O)N[C@@H](Cc1ccc3ccccc3c1)C(=O)N[C@H](C(=O)O)Cc1cn(nn1)[C@H]1C[C@@H](C(=O)N[C@@H](Cc3ccc4ccccc4c3)C(=O)N[C@H](C(=O)O)Cc3cn2nn3)N(C(=O)[C@@H](NC(=O)[C@H](C)NC)C(C)C)C1)C(C)C	< 2000 nM
CN[C@@H](C)C(=O)N[C@H](C(=O)N1C[C@@H]2C[C@H]1C(=O)N[C@@H](Cc1ccccc1)C(=O)N[C@H](C(=O)O)Cc1ccc(cc1)OCc1cn(nn1)[C@H]1C[C@@H](C(=O)N[C@@H](Cc3ccccc3)C(=O)N[C@H](C(=O)O)Cc3ccc(cc3)OCc3cn2nn3)N(C(=O)[C@@H](NC(=O)[C@H](C)NC)C2CCCCC2)C1)C1CCCCC1	< 2000 nM
CN[C@@H](C)C(=O)N[C@H](C(=O)N1C[C@@H]2C[C@H]1C(=O)N[C@@H](Cc1ccc(OC)c(OC)c1)C(=O)N[C@H](C(=O)O)Cc1ccc(cc1)OCc1cn(nn1)[C@H]1C[C@@H](C(=O)N[C@@H](Cc3ccc(OC)c(OC)c3)C(=O)N[C@H](C(=O)O)Cc3ccc(cc3)OCc3cn2nn3)N(C(=O)[C@@H](NC(=O)[C@H](C)NC)C(C)(C)C)C1)C(C)(C)C	2000 to 12000 nM
CCN(CC)C(=O)[C@@H]1Cc2ccc(cc2)OCc2cn(nn2)[C@H]2C[C@@H](C(=O)N[C@@H](Cc3ccccc3)C(=O)N[C@H](C(=O)N(CC)CC)Cc3ccc(cc3)OCc3cn(nn3)[C@H]3C[C@@H](C(=O)N[C@@H](Cc4ccccc4)C(=O)N1)N(C(=O)[C@@H](NC(=O)[C@H](C)NC)C(C)C)C3)N(C(=O)[C@@H](NC(=O)[C@H](C)NC)C(C)C)C2	> 12000 nM
CN[C@@H](C)C(=O)N[C@H](C(=O)N1C[C@@H]2C[C@H]1C(=O)N[C@@H](Cc1ccccc1)C(=O)NCc1cn(nn1)[C@H]1C[C@@H](C(=O)N[C@@H](Cc3ccccc3)C(=O)NCc3cn2nn3)N(C(=O)[C@@H](NC(=O)[C@H](C)NC)C(C)C)C1)C(C)C	< 2000 nM
CN[C@@H](C)C(=O)N[C@H](C(=O)N1C[C@@H]2C[C@H]1C(=O)N[C@@H](Cc1cccc(C(F)(F)F)c1)C(=O)N[C@H](C(=O)O)Cc1ccc(cc1)OCc1cn(nn1)[C@H]1C[C@@H](C(=O)N[C@@H](Cc3cccc(C(F)(F)F)c3)C(=O)N[C@H](C(=O)O)Cc3ccc(cc3)OCc3cn2nn3)N(C(=O)[C@@H](NC(=O)[C@H](C)NC)C2CCCCC2)C1)C1CCCCC1	2000 to 12000 nM
CN[C@@H](C)C(=O)N[C@H](C(=O)N1C[C@@H]2C[C@H]1C(=O)N[C@@H](Cc1ccccc1)C(=O)N[C@@H](C(=O)O)Cc1ccc(cc1)NC(=O)CCc1cn(nn1)[C@H]1C[C@@H](C(=O)N[C@@H](Cc3ccccc3)C(=O)N[C@@H](C(=O)O)Cc3ccc(cc3)NC(=O)CCc3cn2nn3)N(C(=O)[C@@H](NC(=O)[C@H](C)NC)C(C)C)C1)C(C)C	< 2000 nM
CN[C@@H](C)C(=O)N[C@H](C(=O)N1C[C@@H]2C[C@H]1C(=O)N[C@@H](Cc1ccc(OCc3ccccc3)cc1)C(=O)N[C@H](C(=O)O)Cc1ccc(cc1)COc1cn(nn1)[C@H]1C[C@@H](C(=O)N[C@@H](Cc3ccc(OCc4ccccc4)cc3)C(=O)N[C@H](C(=O)O)Cc3ccc(cc3)OCc3cn2nn3)N(C(=O)[C@@H](NC(=O)[C@H](C)NC)C(C)C)C1)C(C)C	2000 to 12000 nM
